Data provenance is ChEMBL document CHEMBL1133131.

Target: UniProt P07550
Sequence (P07550 whole entry): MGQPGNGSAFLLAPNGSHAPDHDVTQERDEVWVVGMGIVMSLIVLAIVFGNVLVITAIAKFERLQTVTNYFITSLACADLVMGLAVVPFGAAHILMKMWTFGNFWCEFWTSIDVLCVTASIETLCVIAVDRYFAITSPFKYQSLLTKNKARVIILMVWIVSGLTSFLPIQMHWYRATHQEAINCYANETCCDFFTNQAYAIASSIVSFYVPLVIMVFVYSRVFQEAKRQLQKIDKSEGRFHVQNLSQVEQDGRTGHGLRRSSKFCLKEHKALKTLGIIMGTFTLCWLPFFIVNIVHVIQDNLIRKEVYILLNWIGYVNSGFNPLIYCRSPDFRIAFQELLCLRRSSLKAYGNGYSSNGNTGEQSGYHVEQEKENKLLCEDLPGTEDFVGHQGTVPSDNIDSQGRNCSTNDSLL
Assay: Binding affinity towards Beta-2 adrenergic receptor prepared from CHO cells expressing the cloned human receptor in the presence of [125I]iodocyanopindolol
READOUT_TYPE: IC50 (nM)
Reply numerically in nM, unit not repeated.

The compound identified as Cc1nc(-c2ccc(S(=O)(=O)Nc3ccc(CCNC[C@H](O)c4cccnc4)cc3)cc2)no1 registered its IC50 at 10000

The compound identified as O=S(=O)(Nc1ccc(CCNC[C@H](O)c2cccnc2)cc1)c1ccc(-c2noc(CCCC3CCCCC3)n2)cc1 registered its IC50 at 660

The compound identified as CCC(=O)CCc1nc(-c2ccc(S(=O)(=O)Nc3ccc(CCNC[C@H](O)c4cccnc4)cc3)cc2)no1 registered its IC50 at 12000

The compound identified as CCCCCCCCc1nc(-c2ccc(S(=O)(=O)Nc3ccc(CCNC[C@H](O)c4cccnc4)cc3)cc2)no1 registered its IC50 at 2500

The compound identified as CC(C)CCCc1nc(-c2ccc(S(=O)(=O)Nc3ccc(CCNC[C@H](O)c4cccnc4)cc3)cc2)no1 registered its IC50 at 1000

The compound identified as O=C(CCc1nc(-c2ccc(S(=O)(=O)Nc3ccc(CCNC[C@H](O)c4cccnc4)cc3)cc2)no1)N1CCCC1 registered its IC50 at 51000

The compound identified as CCCCCCc1nc(-c2ccc(S(=O)(=O)Nc3ccc(CCNC[C@H](O)c4cccnc4)cc3)cc2)no1 registered its IC50 at 1000

The compound identified as CCCCCc1nc(-c2ccc(S(=O)(=O)Nc3ccc(CCNC[C@H](O)c4cccnc4)cc3)cc2)no1 registered its IC50 at 3000
